FYI, the data here is from the RNAGym collection of RNA variant scans (doi:10.7554/elife.80360).

B1: HDV Ribozyme (parent)
chain: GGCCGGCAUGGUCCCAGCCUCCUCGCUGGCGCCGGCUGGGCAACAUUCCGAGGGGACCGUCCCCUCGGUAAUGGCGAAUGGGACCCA

Variants of: B1
Experiment: self-cleavage, relative activity (ratio to wild type); higher = more cleavage; co-transcriptional
measured.attribute: self-cleavage

mutant.designation	measured.attribute	measured.result
G17A C63A	self-cleavage	0.611
U37A G76C	self-cleavage	0.203
U27G G81A	self-cleavage	0.597
G52U U79C	self-cleavage	0.59
